- method.description: Binding assay for the sigma receptor sites is performed by utilizing [3H]N,N-di-o-tolylguanidine ([3H]DTG) and guinea pig brain membrane suspensions
Where a name gives a salt, the structure may show the parent alone.
attribute.measured: IC50 (µM)

(A) CCc1cccc(N(C)C(N)=Nc2cccc3ccccc23)c1 [APTIGANEL HYDROCHLORIDE]
(B) CCc1cccc(NC(=N)N(C)c2cccc(CC)c2)c1
Ask | # query: argmin of IC50 over A and B Identify your selection by its label.
Reply | B
(B: 0.082 µM, A: 2.54 µM)

* * *

- test.system: Glutamate NMDA receptor
- method.description: In vitro radioligand binding assay for the N-methyl-D-aspartate glutamate receptor is performed using [3H]MK-801 and rat brain membrane suspensions
pKi: −log10 of the molar value.
attribute.measured: pKi

Here's what some known entries look like.
INSERT INTO results (molecule, recorded_measurement) VALUES
  ('CCc1cccc(NC(=N)Nc2cc(CC)cc(CC)c2F)c1', 7.30),
  ('CCc1cccc(NC(=N)N(C)c2cc(CC)ccc2Cl)c1', 7.19),
  ('CCc1cccc(NC(=N)Nc2ccccc2CC)c1', 6.46),
  ('CCc1cccc(NC(=N)Nc2cc(Cl)ccc2Cl)c1', 7.17),
  ('CCc1cccc(NC(=N)Nc2cccc(CC)c2)c1', 6.89);

(1) CCc1cccc(N(C)C(=N)Nc2cc(Cl)ccc2Cl)c1
(2) CCc1cccc(NC(=N)Nc2cccc(Cl)c2)c1
Ask | # query: argmin of pKi over 1 and 2 Identify your selection by its label.
Reply | 2

(P) CCc1cccc(NC(=N)Nc2cccc(Br)c2)c1
(Q) CCc1cccc(NC(=N)Nc2ccc(Cl)c(Cl)c2)c1
(R) CCc1cccc(N(C)C(=N)Nc2ccc(Cl)cc2)c1
Ask | Hey, quick one: sort these by pKi, low to high? Quick reminder: the answer is the labels in the order asked.
Reply | R, Q, P

(1) CCc1cccc(N(C)C(=N)Nc2ccccc2Br)c1
(2) CCc1cccc(N(C)C(=N)N(C)c2cc(Br)ccc2Br)c1
Ask | Between 1 and 2 , whose measured pKi reads higher? Identify your selection by its label.
Reply | 2
(2: 7.57, 1: 6.58)

* * *

- test.system: Glutamate NMDA receptor
- method.description: In vitro radioligand binding assay for the N-methyl-D-aspartate glutamate receptor is performed using [3H]MK-801 and rat brain membrane suspensions
pKi: −log10 of the molar value.
attribute.measured: pKi

INSERT INTO measurements (molecule, recorded_measurement) VALUES
  ('CCc1cccc(NC(=N)Nc2ccccc2C)c1', 6.11),
  ('CCc1cccc(NC(=N)Nc2cc(CC)cc(CC)c2)c1', 6.89),
  ('CCc1cccc(N(C)C(=N)N(C)c2cc(CC)ccc2Cl)c1', 6.95);

(A) CCc1cccc(N(C)C(=N)Nc2ccccc2I)c1
(B) CCc1cccc(N(C)C(=N)Nc2cccc(Cl)c2)c1
Ask | # query: argmin of pKi over A and B Identify your selection by its label.
Reply | B
(B: 6.30, A: 7.00)
